All figures here come from the nanobody polyreactivity screen of Harvey et al. (2022).

# assay notes: yeast display, Sf9 membrane polyspecificity reagent, FACS + sequencing; frameworks hold sequencing errors
readout kind: polyreactivity (PSR sort gate)

sequence text: QVQLVESGGGLVQAGGSLRISSAASGSTFFRYDLGWYRPAPGKEWELVAAITASGTRTYYADSVKGRFTISRDNAKNTVYLQMNSLKPEDTAVYYCAADSRRYGYDYWGQGYQVTVSS
polyreactivity (PSR sort gate): high polyreactivity

sequence text: QVQLVESGGGLVQAGGSLRLSCAASGSIRSYAMGWYRQAPGKERELVAAITRSGGSTYYADSVKGRFTISRDNAKNTVYLQMNSLKPEDTADYYCGARSTYSYPLFGSWGQGTQVTVSS
polyreactivity (PSR sort gate): high polyreactivity

sequence text: QVQLVESGGGLDPAGGSLRLSCAASGFTFYRNAMGWYRQAPGKERELVAGITRSGGSTYYADSVKGRFTISRDNAKNTVYLQMNSLKPEDTAVYYCNKAYGGVKYSGTYDYWGQGTQVTVSS
polyreactivity (PSR sort gate): high polyreactivity

sequence text: QVQLVESGGGLVQAGGSLRLSCAASGSTFHFYAMGWYRQAPGKESELVAAITWSGGTTYYADSVKGRFTISRDNAKNTVYFQMNSLKPEDTGVYYCATGQSVIYRYEYWGQGTQVTVSS
polyreactivity (PSR sort gate): low polyreactivity

Let's switch to this sequence now.
# query: polyreactivity (PSR sort gate) of entry `QVQLVESGGGLVQAGGSLRLSCAASGRTFVWYVMGWYRQAPGKERELVAAISLRGGTTYYADSVKGRFTISRDNAKNTVYLQMNSLKPEDTAVYYCAIAGIRHVTSKFKGYHFGYWGQGTQVTVSS` low polyreactivity

====

# assay notes: yeast display, Sf9 membrane polyspecificity reagent, FACS + sequencing; frameworks hold sequencing errors
readout kind: polyreactivity (PSR sort gate)

Solved entries (count: 10):
sequence text: QDQLVESGGGLVQAGGSLLLSCAASGIIITGNAMVWYRQAPGKERELVAGITGSGGNTYYADCVKGRYTISRDNAKNTFYLQMNSLKPEDTGVYYCAARRHIFLLIIWSGRVDYWGQGTQVTVSS
polyreactivity (PSR sort gate): low polyreactivity
--
sequence text: QVQLVESGGGVVQAGGSLRLSCAACGSTFRSYAMGWYRQAPGTERELVAAISSGGRTYYADSVKGRFTITRDNAKNPVYLPMNSLKPEDTAVYYCAARLYAYRWYGYAFKYEYWGHGTQVTVSS
polyreactivity (PSR sort gate): high polyreactivity
--
sequence text: QFQLVESGGGLVQAGGSLRLSCAASGRIFCSYAMGWYIQAPGKERELVAAITSGGSTNYADSVKARFTISRDNAKNTVYLLMNSLKQEDTAVYYCADVEYLRESDYWGQGTQVTVSS
polyreactivity (PSR sort gate): low polyreactivity
--
sequence text: QVQLVESGGGLVQAGGSLRLSCAASGSIFFYYAMGWYRQAPGKERELVAAINSDGSTNYADSVKGRFTISRDNAKNTVYLQMNSLKPEDTAVYYCNADTPYYQGEYNYWGQGTQVTVSS
polyreactivity (PSR sort gate): low polyreactivity
--
sequence text: QVQLVESGGGLVQAGGSLRLSCAASGFIFKPYAMGWYRQAPGKERELVAAITYSGSSTYYADSVKGRFTISRDNAKNTVYLQMNSLKPEDTAVYYCAARDWSHPRRLFYWGQGTQVTVSS
polyreactivity (PSR sort gate): high polyreactivity
--
sequence text: QVQLVESGGGLVQAGGSLRLSCAASGFTFTYNDMGWYRQAPGKEREFVAAISSTGGSTYYADSVQGRFTISRDNAKNTVYLQMNSLKPEDTAVYYCAAEDSWYWDAWFDYWGQGTQVTVSS
polyreactivity (PSR sort gate): low polyreactivity
--
sequence text: QVQLVESGGGLVQAGGSLRLSCAASGRTFGYYAMGWYRPAPGKEGELVAVITWSGDSTYYADSVKGRFTISRDNAKNTVYLQMNSLKPEDTAVYYCNADSGNAGTAYDDYDYWGQGTQVTVSS
polyreactivity (PSR sort gate): low polyreactivity
--
sequence text: QVQLVESGGGLVQAGGSLRLSCAASGRIFDIYAMGWYRQAPGKERELVAGITSVGSTNYADSVKGRFTISRDNAKNTVYLQMNSLKPEDTAVYYCAKDYLKSAAPSPQGLTHYEYWGQGTQVTVSS
polyreactivity (PSR sort gate): low polyreactivity
--
sequence text: QVQLVESGGGLVQAGGSLRISCAASGRTFPRYAMGWYRQAPGKERELVAGISWSGGRTYYADSVKGRFTISRDNAKNTVYLQMNSLKPEDTAVYYCAVVSKNLSYRTTFYYWGQGTQVTVSS
polyreactivity (PSR sort gate): high polyreactivity
--
sequence text: QVQLVDSGGGLVQAGGSLRLSCAASGLIVFYAMGWYRQAPGKERELVAGISSGGNTNYADSVKGRFTISRDNAKNTFYLQMNSMKPQDTSVYYCAAVYLLSSYDFWGQGTQVTVSS
polyreactivity (PSR sort gate): high polyreactivity

# query: polyreactivity (PSR sort gate) of entry `QVQLVESGGGLVQAGGSLRLSCAASGIIFYYYAMGWYRQAPGKERELVAAINWTGGDTYYADSVKGRFTISRDNAKNTVYLQMNSLKPEDTAVYYCNADSFYSYIYDYWGQGTQVTVSS` low polyreactivity

Moving on to the next sequence: `QVQLVESGGGLVQAGGSLRLSCAASGIIFDTNAMGWYRQAPGKERELVATITQRGGTTYYADSVKGRFTISRDNAKNTVYLQMNSLKPEDTAVYYCNAGPVRLPYDSWGQGTQVTVSS` low polyreactivity
